Entries annotated with measured pIC50
Test system: prostate carcinoma (DU145) cells
Test: Cell viability (MTT) assay, DU145
Type: cell-based, human
Conditions: Homo sapiens, DU-145, 48 h treatment
Here pIC50 is given on a logarithmic scale as minus log10 of the concentration in mol/L.

Data request: # input compound: COc1cc2c3c(c4c(OC)c(OC)c(OC)cc4c2cc1OC)CN1CCCCC1C3 (stereo not drawn) [Compound 5h] ; wanted: its pIC50
Data returned: 6.67

Data request: Also, COc1ccc2c(c1)c1c(c3cc(OC)c(OC)cc32)CC2CCCCN2C1 (stereo not drawn) [Compound 5f] please.
Data returned: 7.38

Data request: Also, COc1cc2c(cc1O)c1c(c3cc(OC)c(OC)cc32)CC2CCCCN2C1 (stereo not drawn) [Compound 20] please.
Data returned: 8.36

Data request: Also, COc1cc2c3c(c4cc(OC)c(OC)c(OC)c4c2cc1OC)CN1CCCCC1C3 (stereo not drawn) [Compound 5e] please.
Data returned: 7.62

Data request: Also, COc1cc2c3c(c4cc(OC)c(OC)c(OC)c4c2cc1OC)CN1CCCC1C3 (stereo not drawn) [Compound 4e] please.
Data returned: 6.82

Data request: Also, COc1ccc2c(c1)c1c(c3cc(OC)c(OC)cc32)CN2CCCC2C1 (stereo not drawn) [Compound 4c] please.
Data returned: 5.67
